Measured values drawn from patent US12145941B2 for this set.

Consider the following molecules and their measured IC50 readings.
target: SARS-CoV-2 3CL-protease (Severe acute respiratory syndrome coronavirus 2 (2019-nCoV) (SARS-CoV-2), UniProt P0DTD1); test: SARS-CoV-2 3C-like (3CL) protease fluorescence assay (FRET); type: biochemical; settings: recombinant SARS-CoV-2 3CL-protease 10 nM, 30 min preincubation at RT, TAMRA-[…]-Dabcyl-OH substrate, run in duplicate

[
  {
    "Entry smiles": "CC(C)(C)C[C@@H](C(=O)N1C[C@]2(C[C@H]1C#N)C(=O)Nc1ccccc12)N1CCc2ccc(F)cc2C1=O",
    "IC50": "< 100 nM"
  },
  {
    "Entry smiles": "CC(C)(C)C[C@@H](C(=O)N1C[C@]2(C[C@H]1C#N)C(=O)Nc1ccccc12)N1CCc2c(F)cccc2C1=O",
    "IC50": "< 100 nM"
  },
  {
    "Entry smiles": "CC(C)(F)C[C@@H](C(=O)N1C[C@]2(C[C@H]1C#N)C(=O)Nc1ccccc12)N1Cc2cc(Cl)ccc2C1=O",
    "IC50": "< 100 nM"
  }
]
